Origin of the recorded values: patent US11787810B2

Target: human DGAT2 (hDGAT2) (Homo sapiens (Human), UniProt Q96PD7)
Sequence (Q96PD7 whole entry): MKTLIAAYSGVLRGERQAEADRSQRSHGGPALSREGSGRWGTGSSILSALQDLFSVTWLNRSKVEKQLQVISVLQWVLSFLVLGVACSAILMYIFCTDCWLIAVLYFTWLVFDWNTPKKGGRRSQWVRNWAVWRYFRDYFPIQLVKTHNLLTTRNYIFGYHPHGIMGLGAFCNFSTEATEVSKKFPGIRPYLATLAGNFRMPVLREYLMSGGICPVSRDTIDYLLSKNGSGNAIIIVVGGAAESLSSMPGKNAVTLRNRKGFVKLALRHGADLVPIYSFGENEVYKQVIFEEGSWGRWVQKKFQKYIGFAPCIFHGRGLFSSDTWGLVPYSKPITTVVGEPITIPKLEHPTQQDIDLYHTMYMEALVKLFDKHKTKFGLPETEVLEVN
Experiment: DGAT2 enzymatic activity assay (13C18-triolein formation, LC/MS/MS)
Format: biochemical
Conditions: hDGAT2 Sf-9 membrane prep, 25 μM diolein, 5 μM 13C oleoyl-CoA; read-out: Human DGAT2 IC50
Readout: IC50 (nM)
The response must be a number in nM with no trailing unit.

Some entries whose results are on file:
Query block: Recorded IC50 for CC(C)n1nc(-c2cccc(OC(F)F)c2)c2ncc(C(=O)NC3(C(C)O)CCOCC3)cc21 (single isomer, unassigned) [Example 73a] , please?
Result block: 119

Query block: Recorded IC50 for C[C@]1(NC(=O)c2cnc3c(-c4cccc(OC(F)F)c4)nn(C4CCOC4)c3c2)CCS(=O)(=O)C1 (single isomer, unassigned) [Example 60a] , please?
Result block: 600

Proceed to the following item.
Query block: Recorded IC50 for CC(O)C(C)n1nc(-c2cccc(OC(F)F)c2)c2ncc(C(=O)NC3(C)CS(=O)(=O)C3)cc21 (single isomer, unassigned) [Example 78a] , please?
Result block: 1730
